Values from patent US20240294551A1

# TGT: His-tagged KRAS G12D protein (Homo sapiens (Human), UniProt P01116, G12D)
# Sequence (P01116 other isoform, or with tags, fused parts or gaps G12D): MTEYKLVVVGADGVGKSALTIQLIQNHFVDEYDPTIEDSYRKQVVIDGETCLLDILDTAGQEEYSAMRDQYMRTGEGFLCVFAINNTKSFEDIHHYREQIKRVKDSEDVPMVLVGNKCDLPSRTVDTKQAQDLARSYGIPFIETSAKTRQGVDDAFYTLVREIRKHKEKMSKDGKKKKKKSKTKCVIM
# ASSAY: KRAS G12D TR-FRET Assay
# Format: binding
# APPLIED CONDITIONS: read-out: KRAS G12D Binding IC50
pIC50: −log10 of the molar value.
VALUE TYPE: pIC50

COMPOUND: C[C@]12C[C@]3(CN(CCO3)c3nc(OC[C@@]45CCCN4C[C@H](F)C5)nc4c(F)c(ncc34)-c3c(c(Cl)cc4[nH]ncc34)CCOC(=O)O1)C2 [Example 322]
REPORTED: 6.44

COMPOUND: Cn1ncc2cc(Cl)c3c(c21)-c1ncc2c(nc(OC[C@@]45CCCN4C[C@H](F)C5)nc2c1F)N1CCOC[C@H](C1)OC(=O)OCCC3 [Example 335]
REPORTED: 7.36

I: O=C1OCCc2cccc3cccc(c23)-c2ncc3c(nc(OC[C@@]45CCCN4C[C@H](F)C5)nc3c2F)N2CCOC[C@H](C2)O1 [Example 201]
II: Cc1cc2[nH]ncc2c2c1CCCCC(=O)OC1CC[C@@H]3CC[C@H]1N3c1nc(OC[C@@]34CCCN3C[C@H](F)C4)nc3c(F)c-2ncc13 (racemic) [Example 86]
III: Cc1cc2[nH]ncc2c2c1CCCC(F)C(=O)N[C@@H]1CCCCN(C1)c1nc(OC[C@@]34CCCN3C[C@H](F)C4)nc3c(F)c-2ncc13 (single isomer, unassigned) [Example 160]
Prompt: Sort the 3 compounds by pIC50; largest first, smallest last. Use the labels to give the ranking in the order requested.
Response: III, I, II
(III: 8.40, I: 8.05, II: 7.21)

A: C[C@@]12CCCCN(C1)c1nc(OC[C@@]34CCCN3C[C@H](F)C4)nc3c(F)c(ncc13)-c1c(c(Cl)cc3[nH]ncc13)CCC[C@H](F)C(=O)N2 (mixture of isomers) [Example 281]
B: Cc1cc2[nH]ncc2c2c1C[C@H](C)COC(=O)O[C@@H]1CCCN(C1)c1nc(OC[C@@]34CCCN3C[C@H](F)C4)nc3c(F)c-2ncc13 (single isomer, unassigned) [Example 215]
Prompt: Min pIC50? A | B Refer to your chosen item by its label in the answer.
Response: B
